procedure_summary: Metabolic stability in rat liver microsomes assessed as parent compound remaining at 5 uM after 1 hr
Assay type: ADME, Microsome
experimental_context: read-out: Stability
measured_metric: remaining at 1 h, 5 µM (%)

- CN(c1ncnc2c1CCN2c1ccc(S(C)(=O)=O)cc1F)[C@H]1CC[C@]2(CC1)COC(C)(C)C2: 94
- Cc1c(Nc2ccc(S(C)(=O)=O)cc2F)ncnc1N(C)[C@H]1CC[C@]2(CC1)COC(C)(C)C2: 93

a: CN(c1cc(N2CCc3cc(S(C)(=O)=O)ccc32)ncn1)[C@H]1CC[C@]2(CC1)COC(C)(C)C2
b: Cc1c(Nc2ccc(C(=O)N(C)C)cc2F)ncnc1O[C@H]1CC[C@]2(CC1)COC(C)(C)C2
Response body: label of entry with the larger remaining at 1 h, 5 µM; valid values a , b . Write the label of whichever entry you select.
a
(a: 80%, b: 44%)
